measurementDescription: In vivo pharmacokinetic study
Parameters: species or system Sprague–Dawley (SD) rats
statedConditions: male, Sprague-Dawley, serum; rat; Intravenous (5 mg/kg); read-out: MRT0–last
readoutType: MRT last (min)
The reply should be a number in min, with the unit left off.

In: Using known records, supply MRT last for CC(C)(C)CCOc1c(-c2ccc(F)c(F)c2)oc2cc(OCC(=O)O)cc(O)c2c1=O
Out: 27

---

Tested on: NDM-1-Producing P. aeruginosa (PA-017, blaNDM)
measurementDescription: MIC / checkerboard with ATM
Type: cell-based
Design: key: S: susceptible; I: intermediate; R: resistant
statedConditions: PA-017; Table S2
readoutType: Susceptibility category

# compound, systemUnderTest, Susceptibility category
rows = [
    ("C[C@@H](O)[C@H]1C(=O)N2C(C(=O)O)=C(SCCN=CN)C[C@H]12 [IPM, imipenem, reference compound]", "NDM-1-Producing P. aeruginosa (PA-017, blaNDM)", "R"),
    ("CO/N=C(\\C(=O)N[C@@H]1C(=O)N2C(C(=O)[O-])=C(C[N+]3(C)CCCC3)CS[C@H]12)c1csc(N)n1 [FEP, cefepime, reference compound]", "NDM-1-Producing P. aeruginosa (PA-017, blaNDM)", "R"),
    ("CC(C)(O/N=C(\\C(=O)N[C@@H]1C(=O)N2C(C(=O)[O-])=C(C[n+]3ccccc3)CS[C@H]12)c1csc(N)n1)C(=O)O [CAZ, ceftazidime, reference compound]", "NDM-1-Producing P. aeruginosa (PA-017, blaNDM)", "R"),
    ("C[C@@H](O)[C@H]1C(=O)N2C(C(=O)O)=C(S[C@@H]3CN[C@H](C(=O)N(C)C)C3)[C@H](C)[C@H]12 [MEM, meropenem, reference compound]", "NDM-1-Producing P. aeruginosa (PA-017, blaNDM)", "R"),
    ("NCC[C@H](O)C(=O)N[C@@H]1C[C@H](N)[C@@H](O[C@H]2O[C@H](CN)[C@@H](O)[C@H](O)[C@H]2O)[C@H](O)[C@H]1O[C@H]1O[C@H](CO)[C@@H](O)[C@H](N)[C@H]1O [AMK, amikacin, reference compound]", "NDM-1-Producing P. aeruginosa (PA-017, blaNDM)", "R"),
]

In: # assay system NDM-1-Producing P. aeruginosa (PA-017, blaNDM): give Susceptibility category of C[C@H]1[C@H](NC(=O)/C(=N\OC(C)(C)C(=O)O)c2csc(N)n2)C(=O)N1S(=O)(=O)O
Out: I

In: # assay system NDM-1-Producing P. aeruginosa (PA-017, blaNDM): give Susceptibility category of CNC(C)C1CCC(N)C(OC2C(N)CC(N)C(OC3OCC(C)(O)C(NC)C3O)C2O)O1 (stereo not shown) [GEN, gentamicin, reference compound]
Out: R

---

Below, each entry is listed alongside its reported MIC.
Test system: PA-003, blaVIM
measurementDescription: MIC / checkerboard with ATM
Assay type: cell-based, P. aeruginosa
statedConditions: Pseudomonas aeruginosa; PA-003; Table S2; read-out: MIC value

Use these answered entries as a reference point.
# compound, systemUnderTest, recordedValue
data = [
    ("CO/N=C(\\C(=O)N[C@@H]1C(=O)N2C(C(=O)[O-])=C(C[N+]3(C)CCCC3)CS[C@H]12)c1csc(N)n1 [FEP, cefepime, reference compound]", "PA-003, blaVIM", "> 16 µg/mL"),
    ("C[C@@H](O)[C@H]1C(=O)N2C(C(=O)O)=C(SCCN=CN)C[C@H]12 [IPM, imipenem, reference compound]", "PA-003, blaVIM", "> 8 µg/mL"),
]

Please turn your attention to the following entry.
In: Using known records, supply MIC for CNC(C)C1CCC(N)C(OC2C(N)CC(N)C(OC3OCC(C)(O)C(NC)C3O)C2O)O1 (stereo not drawn) [GEN, gentamicin, reference compound]
Out: > 8 µg/mL
